Tested on: S. aureus NEMC 8769
Test: MIC, agar dilution
Format: cell-based
Details: Staphylococcus aureus, NEMC8769, 18 h, read-out: MIC
Structures can show the parent of a compound that is named as a salt.
Field 'label' (enum: true (1) / false (0)). Set to true (1) when MIC is strictly under 0.2 µg/mL; else false (0).

Check out these entries, answers already filled in.
>  <compound>
CN(C)[C@@H]1C(O)=C(C(N)=O)C(=O)[C@@]2(O)C(O)=C3C(=O)c4c(ccc(NC(=O)CBr)c4O)CC3CC12 (some centres unmarked) [R, monohydrochloride]

>  <target_desc>
S. aureus NEMC 8769

>  <label>
false (0)

$$$$
>  <compound>
CC(C)CNCC(=O)Nc1ccc2c(c1O)C(=O)C1=C(O)[C@]3(O)C(=O)C(C(N)=O)=C(O)[C@@H](N(C)C)C3CC1C2 (some centres unmarked) [M, dihydrochloride]

>  <target_desc>
S. aureus NEMC 8769

>  <label>
false (0)

$$$$
>  <compound>
CC(C(=O)Nc1ccc2c(c1O)C(=O)C1=C(O)[C@]3(O)C(=O)C(C(N)=O)=C(O)[C@@H](N(C)C)C3CC1C2)N(C)C (some centres unmarked) [B, dihydrochloride]

>  <target_desc>
S. aureus NEMC 8769

>  <label>
true (1)

$$$$

Query string: Check if MIC falls below 0.2 µg/mL for CN(C)CC(=O)Nc1ccc2c(c1O)C(=O)C1=C(O)[C@]3(O)C(=O)C(C(=O)NCN4CCCC4)=C(O)[C@@H](N(C)C)C3CC1C2 (some centres unmarked) .
Result string: false (0)

Query string: Ok, now CN(C)CC(=O)Nc1ccc2c(c1O)C(=O)C1=C(O)[C@]3(O)C(=O)C(C(N)=O)=C(O)[C@@H](N(C)C)C3CC1C2 (some centres unmarked)
Result string: true (1)

Query string: Thanks! And CC(Br)C(=O)Nc1ccc2c(c1O)C(=O)C1=C(O)[C@]3(O)C(=O)C(C(N)=O)=C(O)[C@@H](N(C)C)C3CC1C2 (some centres unmarked) [S, dihydrochloride] ?
Result string: false (0)

Query string: Param item: CCCCCCNCC(=O)Nc1ccc2c(c1O)C(=O)C1=C(O)[C@]3(O)C(=O)C(C(N)=O)=C(O)[C@@H](N(C)C)C3CC1C2 (some centres unmarked) [G, dihydrochloride]
Result string: true (1)

Query string: How about this compound: CN(C)[C@@H]1C(O)=C(C(N)=O)C(=O)[C@@]2(O)C(O)=C3C(=O)c4c(ccc(NC(=O)CN5CCCCC5)c4O)CC3CC12 (some centres unmarked) [I, dihydrochloride]
Result string: false (0)

* * *

Tested on: X. maltophilia NEMC 87210
Test: MIC, agar dilution
Assay type: cell-based
Conditions: Stenotrophomonas maltophilia, NEMC87210, 18 h, X. maltophilia NEMC 87210; read-out: MIC
Where a name gives a salt, the structure may show the parent alone.
value_kind: MIC (µg/mL)
Numeric only. Scale: µg/mL

These recorded examples may help you get a feel for the data.
>  <compound>
CC(Br)C(=O)Nc1ccc2c(c1O)C(=O)C1=C(O)[C@]3(O)C(=O)C(C(N)=O)=C(O)[C@@H](N(C)C)C3CC1C2 (some centres unmarked) [S, dihydrochloride]

>  <MIC [µg/mL]>
16

$$$$
>  <compound>
CN(C)CC(=O)Nc1ccc2c(c1O)C(=O)C1=C(O)[C@]3(O)C(=O)C(C(=O)NCN4CCCC4)=C(O)[C@@H](N(C)C)C3CC1C2 (some centres unmarked)

>  <MIC [µg/mL]>
2

$$$$

Query string: Field request: MIC | item: CC(C)CNCC(=O)Nc1ccc2c(c1O)C(=O)C1=C(O)[C@]3(O)C(=O)C(C(N)=O)=C(O)[C@@H](N(C)C)C3CC1C2 (some centres unmarked) [M, dihydrochloride]
Result string: 2

Query string: Would you mind doing CN(C)CC(=O)Nc1ccc2c(c1O)C(=O)C1=C(O)[C@]3(O)C(=O)C(C(N)=O)=C(O)[C@@H](N(C)C)C3CC1C2 (some centres unmarked) as well?
Result string: 2

Query string: Same thing, different compound: CC1CCN(CC(=O)Nc2ccc3c(c2O)C(=O)C2=C(O)[C@]4(O)C(=O)C(C(N)=O)=C(O)[C@@H](N(C)C)C4CC2C3)CC1 (some centres unmarked) [A, dihydrochloride]
Result string: 0.5

* * *

Tested on: E. coli UBMS 90-4 Tet M
Assay: microbe, parasite or virus in culture
Assay type: cell-based
Conditions: Escherichia coli, UBMS904TETM, 18 h
Where a name gives a salt, the structure may show the parent alone.
value_kind: MIC (µg/mL)
The reply should be a number in µg/mL, with the unit left off.

Past entries and their recorded results:
>  <compound>
CCCCNCC(=O)Nc1ccc2c(c1O)C(=O)C1=C(O)[C@]3(O)C(=O)C(C(N)=O)=C(O)[C@@H](N(C)C)C3CC1C2 (some centres unmarked) [H, dihydrochloride]

>  <reading_unit>
µg/mL

>  <assay_value>
0.12

$$$$
>  <compound>
CN(C)[C@@H]1C(O)=C(C(N)=O)C(=O)[C@@]2(O)C(O)=C3C(=O)c4c(ccc(NC(=O)CN5CCCC5)c4O)CC3CC12 (some centres unmarked) [D, dihydrochloride]

>  <reading_unit>
µg/mL

>  <assay_value>
0.25

$$$$

Query string: Given the compound CNCC(=O)Nc1ccc2c(c1O)C(=O)C1=C(O)[C@]3(O)C(=O)C(C(N)=O)=C(O)[C@@H](N(C)C)C3CC1C2 (some centres unmarked) [F, dihydrochloride] , what is its reported MIC?
Result string: 0.5

Query string: Again, but for CCNCC(=O)Nc1ccc2c(c1O)C(=O)C1=C(O)[C@]3(O)C(=O)C(C(N)=O)=C(O)[C@@H](N(C)C)C3CC1C2 (some centres unmarked) [E, dihydrochloride]
Result string: 0.25

Query string: Then this compound: CN(C)[C@@H]1C(O)=C(C(N)=O)C(=O)[C@@]2(O)C(O)=C3C(=O)c4c(ccc(NC(=O)CN5CCCCC5)c4O)CC3CC12 (some centres unmarked) [I, dihydrochloride]
Result string: 0.5

Query string: Try this compound next: CC(C(=O)Nc1ccc2c(c1O)C(=O)C1=C(O)[C@]3(O)C(=O)C(C(N)=O)=C(O)[C@@H](N(C)C)C3CC1C2)N1CCCC1 (some centres unmarked)
Result string: 1

Query string: Can you check CCCCCCNCC(=O)Nc1ccc2c(c1O)C(=O)C1=C(O)[C@]3(O)C(=O)C(C(N)=O)=C(O)[C@@H](N(C)C)C3CC1C2 (some centres unmarked) [G, dihydrochloride] next?
Result string: 0.5

Query string: And then CCCNCC(=O)Nc1ccc2c(c1O)C(=O)C1=C(O)[C@]3(O)C(=O)C(C(N)=O)=C(O)[C@@H](N(C)C)C3CC1C2 (some centres unmarked) [C, dihydrochloride] , what is it?
Result string: 0.25

* * *

The reader will find reported MIC values listed item by item below.
Test system: E. coli J3272 Tet C
Assay: microbe, parasite or virus in culture
Format: cell-based
Conditions: Escherichia coli, J3272TETC, 18 h
Where a name gives a salt, the structure may show the parent alone.
# number only, unit µg/mL dropped from output

>  <molecule>
CC(C)CNCC(=O)Nc1ccc2c(c1O)C(=O)C1=C(O)[C@]3(O)C(=O)C(C(N)=O)=C(O)[C@@H](N(C)C)C3CC1C2 (stereo partly drawn) [M, dihydrochloride]

>  <MIC [µg/mL]>
1

$$$$

Proceeding to the next molecule to report its MIC.
Query string: What does the record list as MIC for CNCC(=O)Nc1ccc2c(c1O)C(=O)C1=C(O)[C@]3(O)C(=O)C(C(N)=O)=C(O)[C@@H](N(C)C)C3CC1C2 (stereo partly drawn) [F, dihydrochloride] ?
Result string: 4

* * *

Each entry below lists one item and its recorded MIC value.
Tested on: S. hemolyticus AVHAH 88-3
Experiment: MIC, agar dilution
Assay type: cell-based
Conditions: Streptococcus pyogenes, AVHAH883, 18 h
Counter-ions that a name gives are not always drawn.
Express the result in µg/mL but write the number alone.

Query string: # query: MIC of entry CN(C)[C@@H]1C(O)=C(C(N)=O)C(=O)[C@@]2(O)C(O)=C3C(=O)c4c(O)cccc4[C@@](C)(O)[C@H]3C[C@@H]12
Result string: 0.5

Query string: Moving on to the next compound: CC(C(=O)Nc1ccc2c(c1O)C(=O)C1=C(O)[C@]3(O)C(=O)C(C(N)=O)=C(O)[C@@H](N(C)C)C3CC1C2)N(C)C (stereo partly drawn) [B, dihydrochloride]
Result string: 1

Query string: Follow-up entry: CCNCC(=O)Nc1ccc2c(c1O)C(=O)C1=C(O)[C@]3(O)C(=O)C(C(N)=O)=C(O)[C@@H](N(C)C)C3CC1C2 (stereo partly drawn) [E, dihydrochloride]
Result string: 1

* * *

Test system: S. aureus UBMS 88-4
Assay: MIC, agar dilution
Assay type: cell-based
Settings: Staphylococcus aureus, UBMS884, 18 h
Where a name gives a salt, the structure may show the parent alone.
value_kind: MIC (µg/mL)
The reply should contain only the number, in µg/mL.

Example cases with answers are listed next.
>  <compound>
CN(C)CC(=O)Nc1ccc2c(c1O)C(=O)C1=C(O)[C@]3(O)C(=O)C(C(=O)NCN4CCCC4)=C(O)[C@@H](N(C)C)C3CC1C2 (stereo partly drawn)

>  <target_desc>
S. aureus UBMS 88-4

>  <reading_unit>
µg/mL

>  <MIC>
0.25

$$$$
>  <compound>
CN(C)[C@@H]1C(O)=C(C(N)=O)C(=O)[C@@]2(O)C(O)=C3C(=O)c4c(ccc(NC(=O)CNCc5ccccc5)c4O)CC3CC12 (stereo partly drawn) [J, dihydrochloride]

>  <target_desc>
S. aureus UBMS 88-4

>  <reading_unit>
µg/mL

>  <MIC>
1

$$$$
>  <compound>
CCNCC(=O)Nc1ccc2c(c1O)C(=O)C1=C(O)[C@]3(O)C(=O)C(C(N)=O)=C(O)[C@@H](N(C)C)C3CC1C2 (stereo partly drawn) [E, dihydrochloride]

>  <target_desc>
S. aureus UBMS 88-4

>  <reading_unit>
µg/mL

>  <MIC>
0.5

$$$$
>  <compound>
CCCCCCNCC(=O)Nc1ccc2c(c1O)C(=O)C1=C(O)[C@]3(O)C(=O)C(C(N)=O)=C(O)[C@@H](N(C)C)C3CC1C2 (stereo partly drawn) [G, dihydrochloride]

>  <target_desc>
S. aureus UBMS 88-4

>  <reading_unit>
µg/mL

>  <MIC>
0.25

$$$$
>  <compound>
CCN(CC)CC(=O)Nc1ccc2c(c1O)C(=O)C1=C(O)[C@]3(O)C(=O)C(C(N)=O)=C(O)[C@@H](N(C)C)C3CC1C2 (stereo partly drawn) [O, dihydrochloride]

>  <target_desc>
S. aureus UBMS 88-4

>  <reading_unit>
µg/mL

>  <MIC>
0.5

$$$$

Query string: Give MIC (S. aureus UBMS 88-4) of the following compound: CN(C)[C@@H]1C(O)=C(C(N)=O)C(=O)[C@@]2(O)C(O)=C3C(=O)c4c(ccc(NC(=O)CNCC5CC5)c4O)CC3CC12 (stereo partly drawn) [Q, dihydrochloride]
Result string: 0.5

Ref: patent US5567692A
